tested_target: T1, mfNPR1-mFc:hBNP complex (monkey; human, UniProt P16860 103-134)
T1 construct: Receptor-Fc pre-complexed with 10-fold hBNP
measurement_description: SPR Biacore, mAb captured by anti-human Fc, 37C
readout_type: Kd (nM)
Could you give me the number in nM? Just the number is fine.

Q: Look up Kd of mAb22805 (antibody, human IgG4, V domains shown) VH: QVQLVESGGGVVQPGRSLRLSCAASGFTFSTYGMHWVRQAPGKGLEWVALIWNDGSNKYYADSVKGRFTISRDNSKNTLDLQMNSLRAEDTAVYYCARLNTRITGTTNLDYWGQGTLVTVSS VL: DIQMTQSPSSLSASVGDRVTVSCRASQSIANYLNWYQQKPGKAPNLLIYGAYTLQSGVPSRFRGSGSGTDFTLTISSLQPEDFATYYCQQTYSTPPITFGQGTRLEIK and report it.
A: 3.39

Q: Return reported Kd. Input binder: mAb25479 (antibody, human IgG4, V domains shown) VH: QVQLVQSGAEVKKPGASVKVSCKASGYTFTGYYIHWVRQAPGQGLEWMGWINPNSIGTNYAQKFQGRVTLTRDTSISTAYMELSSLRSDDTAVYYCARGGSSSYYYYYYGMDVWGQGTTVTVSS VL: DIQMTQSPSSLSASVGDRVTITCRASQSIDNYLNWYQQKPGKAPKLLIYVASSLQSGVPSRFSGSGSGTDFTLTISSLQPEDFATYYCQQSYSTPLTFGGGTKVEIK
A: 5.53

Q: For mAb22033 (antibody, human IgG4, V domains shown) VH: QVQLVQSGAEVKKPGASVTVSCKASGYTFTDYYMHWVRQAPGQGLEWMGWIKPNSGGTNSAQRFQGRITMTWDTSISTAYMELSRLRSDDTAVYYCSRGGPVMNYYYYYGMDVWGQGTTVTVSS VL: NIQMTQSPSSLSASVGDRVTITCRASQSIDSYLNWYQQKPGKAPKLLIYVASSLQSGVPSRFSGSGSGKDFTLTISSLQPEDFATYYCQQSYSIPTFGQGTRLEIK , write its Kd.
A: 1.3

Cited source: patent US20240309103A1
